Please go through the items and note down their TGI.
System: OVCAR-8 ovarian
TEST DESCRIPTION: NCI tumour cell line growth inhibition, 48 h
Numbers only, in µM.

Previously resolved entries follow.
Cn1c(=O)c(C(=O)NC23CC4CC(CC(C4)C2)C3)c(O)c2ccccc21 = 64.1
CC(=O)OC1CC[C@@]2(C)C(=CC[C@@H]3[C@@H]2CC[C@]2(C)C(OC(C)=O)[C@H](n4ccnc4)C[C@@H]32)C1 (some centres undefined) = 44.2
Cc1ccc(O)cc1Nc1ccnc2cc(-c3ccccn3)ccc12 = 9.28

We next turn to a different compound, shown below.
Problem: Identify TGI associated with the compound O=C1C2C(C(=O)N1CC[Se][Se]CCN1C(=O)C3C(C1=O)[C@H]1C=C[C@@H]3C1)[C@H]1C=C[C@@H]2C1 (some centres undefined)
Result: 2.28

* * *

System: HL-60(TB) leukemia
TEST DESCRIPTION: NCI tumour cell line growth inhibition, 48 h
PROPERTY LABEL: TGI

Previously resolved entries follow.
N=C(N)c1ccc(N=Nc2c(O)ccc3cc(O)ccc23)cc1 = > 100 µM
Cc1nn2c(-c3nc4cc(Cl)c(Cl)cc4[nH]3)c(-c3ccc(F)cc3)nc2s1 = > 100 µM
NNC(=O)N/N=C1\CNC(=O)C(=O)C1c1nc2ccccc2s1 (stereo not drawn) = > 100 µM
CC(C)C/C(=N\NC(=O)c1ccncc1)c1cc(Cl)ccc1O = 2.26 µM
Cc1cc(C)nc(NC(=S)Nc2ccc(Cl)cc2)c1 = > 100 µM

Hello, I would appreciate it if you could give TGI for each entry below.
1. CC(C)c1cc(C(C)C)c(Cl)c(Cl)c1O (tested in a mixture with another compound)
2. CSc1nc(C)c(CCOC(C)=O)c(N=P(c2ccccc2)(c2ccccc2)c2ccccc2)n1
3. Clc1cccc(C2SCc3nc4ccccc4n32)c1 (stereo not drawn)

Result:
36 µM
> 10 µM
31.6 µM

* * *

System: HCC-2998 colon
TEST DESCRIPTION: NCI tumour cell line growth inhibition, 48 h
PROPERTY LABEL: TGI

Previously resolved entries follow.
CN(C)CCS(=O)(=O)Nc1cc(-c2ccc3ncnc(Nc4ccc(F)c(Cl)c4)c3c2)cnc1Cl = 3.04 µM
CC1CCC2c3c([nH]c4ccccc34)C3C(=O)N(c4ccccc4)C(=O)C3C2C1 (stereo unspecified) = > 250 µM
O=C(O)C1=C(C(=O)O)Oc2ccccc2O1 = > 100 µM

Hello, I would appreciate it if you could give TGI for each entry below.
1. CCN(CC)CCS(=O)(=O)CCNc1ccnc2cc(Cl)ccc12
2. Nc1ccn([C@@H]2S[C@H](CO)[C@@H](O)[C@@H]2F)c(=O)n1
3. O=C(Nc1ccc(Cl)c(C(F)(F)F)c1)C(=O)c1c(O)c2ccccc2oc1=O
4. Clc1ccc(Cn2cc(/C=N/n3cnnc3)c3ccccc32)cc1
5. CC(=O)Oc1ccc2cc(Oc3ccccc3)c(=O)oc2c1

Result:
1: > 23.8 µM; 2: > 100 µM; 3: > 100 µM; 4: 31.4 µM; 5: > 100 µM

Hello, I would appreciate it if you could give TGI for each entry below.
1. CC1(CCCCO)C=CC(S(=O)(=O)c2ccccc2)CC1 (stereo unspecified)
2. O=C(Nc1nc2c(s1)CCc1c-2c(Br)n(Cc2ccccc2)c1Br)c1ccccc1
3. O=c1[nH]c(=O)n(C2CC(O)C(O)C(CO)O2)cc1F (stereo unspecified)
4. C=C1C(=O)O[C@@H]2[C@H]1C[C@H](I)[C@@]1(C)CC[C@H](O1)[C@](C)(I)CCCC(C)[C@@H]2O (stereo partly specified)

Result:
19.6 µM
> 100 µM
> 100 µM
25.2 µM

Hello, I would appreciate it if you could give TGI for each entry below.
1. CCOC(=O)C(C)(Cc1ccc(O)cn1)NC(=O)c1ccccc1 (stereo unspecified)
2. Cc1ccc(NC(=O)c2ccc(NC3=C(Cl)C(=O)N(Cc4ccccc4)C3=O)cc2)cc1Cl
3. N/C(=N\N=C/c1cc([N+](=O)[O-])cc([N+](=O)[O-])c1O)NO

Result:
1. > 100 µM
2. 14.2 µM
3. > 100 µM

Hello, I would appreciate it if you could give TGI for each entry below.
1. C=CC[PH+](c1ccccc1)c1ccccc1.C=CC[PH+](c1ccccc1)c1ccccc1.[Pt+2].[S-]c1ncccn1.[S-]c1ncccn1
2. Cc1n(Cc2ccc3ccccc3n2)cc[n+]1Cc1ccc2ccccc2c1

Result:
1. 41.5 µM
2. 7.24 µM

* * *

Test system: M14 melanoma
TEST DESCRIPTION: NCI tumour cell line growth inhibition, 48 h
PROPERTY LABEL: TGI

Hello, I would appreciate it if you could give TGI for each entry below.
1. CN(C)CCS(=O)(=O)Nc1cc(-c2ccc3ncnc(Nc4ccc(F)c(Cl)c4)c3c2)cnc1Cl
2. CC(N)=O.[Cl][Pt][Cl].[NH-]c1ccn(C2OC(CO)C(O)C2O)c(=O)n1 (stereo not drawn)
3. CCN(CC)Cc1cc(Nc2cc(C(F)(F)F)c(C#N)c3nc4ccccc4n23)ccc1O
4. COc1cc(S(=O)(=O)Nc2ccc(-c3csc(/N=C\c4cccs4)n3)cc2)ccc1Cl
5. O=S(=O)(NCCCNc1nccc(-c2c(-c3cccc(F)c3)nc3occn23)n1)c1cccc2ccccc12
6. CC(=O)Oc1ccc2cc(Oc3ccccc3)c(=O)oc2c1
7. N=C(N)c1ccc(N=Nc2c(O)ccc3cc(O)ccc23)cc1
8. CN(c1ccc(NC(=O)NCCN2CCOCC2)cc1)c1ccnc(Nc2ccc(CS(C)(=O)=O)cc2)n1

Result:
1. > 35.4 µM
2. > 100 µM
3. 13.9 µM
4. > 100 µM
5. > 100 µM
6. > 100 µM
7. > 100 µM
8. > 25 µM

* * *

Tested on: OVCAR-8 ovarian
TEST DESCRIPTION: NCI tumour cell line growth inhibition, 48 h
Please go through the items and note down their TGI.
Give bare numbers, in µM.

O=S(=O)(/N=C(\NO)Nc1ccc(Cl)cc1)c1cc(S(=O)(=O)c2ccccc2)cs1 = 36.7

We next turn to a different molecule, shown below.
Problem: Identify TGI associated with the molecule O=C1CC(=O)NC(=NN2C(=O)/C(=C/c3ccc(Cl)cc3)N=C2c2ccccc2)N1
Result: 30.5

* * *

Test system: DLD-1 colon
TEST DESCRIPTION: NCI tumour cell line growth inhibition, 48 h
Please go through the items and note down their TGI.

C1CCN2CC3CONC3C2C1 (stereo unspecified) = > 100 µM
Cc1cc(OC(=O)c2c(C)cc(OC(=O)c3c(C)cc(O)cc3O)cc2O)cc(O)c1C(=O)O = > 100 µM
Cc1c(C)c2ccc(OC(C)C(=O)O)cc2oc1=O (stereo unspecified) = > 100 µM
COc1ccc2c3c(c(C(=O)O)oc13)C(CCC(=O)O)CC2 (stereo unspecified) = > 100 µM
Cc1csc(CCC(N)C(=O)O)n1 (stereo unspecified) = > 100 µM
CCOC(=O)[C@H]1Nc2c(cccc2[N+](=O)[O-])C2c3ccccc3CC21 (stereo partly specified) = > 100 µM
O=c1[nH]c(=O)n(C2CC(O)C(O)C(CO)O2)cc1F (stereo unspecified) = > 100 µM
CC1(C)CC(O)CC(C)(C)N1.CC1(C)CC(O)CC(C)(C)N1.CC1(C)CC(O)CC(C)(C)N1.CC1(C)CC(O)CC(C)(C)N1.Cl.[Ti] = > 100 µM

Hello, I would appreciate it if you could give TGI for each entry below.
1. O=c1c2cccc3cccc(c4n1CCCN=4)c32
2. COc1cc2c(cc1OC)C(SC)C(=O)N(Cc1cccc(OC)c1OC)CC2 (stereo unspecified)
3. O=C(Nc1ccc(Cl)c(Cl)c1)C1C(=O)N(c2ccc(Cl)c(Cl)c2)C(=O)/C1=N\O (stereo unspecified)

Result:
1. > 100 µM
2. > 100 µM
3. > 100 µM

* * *

Tested on: HOP-92 NSCLC
TEST DESCRIPTION: NCI tumour cell line growth inhibition, 48 h
PROPERTY LABEL: TGI

NCC(Cc1ccccc1)P(=O)(O)O (stereo not drawn) = > 100 µM
OC1CSCCSCCCSCCSC1 = > 100 µM

We next turn to a different molecule, shown below.
Problem: Quote HOP-92 NSCLC TGI for entry Nc1c(C(=O)Nc2ccccn2)sc2nc3c(cc12)CCCCCC3 .
Result: 11.4 µM

* * *

System: T-47D breast
TEST DESCRIPTION: NCI tumour cell line growth inhibition, 48 h
Please go through the items and note down their TGI.
One number for each entry, in µM.

Previously resolved entries follow.
CCOC(=O)[C@@H]1C[C@@H]1c1ccc(O)c(O)c1 = 51.7
CCN(CCCl)c1cc(CN(C)C)cc(NC(=O)c2cc(C(=O)Nc3cc(CN(C)C)cc(N(CC)CCCl)c3)n(C)n2)c1 = 6.43
CC/C(=C(/c1ccc(/C=C/C(=O)O)cc1)c1ccc2[nH]ncc2c1)c1ccc(F)cc1Cl = 26.9
O=c1c2ccccc2n2cnc3ccc(NCCNCCO)c1c32 = 22.2

We next turn to a different compound, shown below.
Problem: Identify TGI associated with the compound Nc1c(C(=O)Nc2ccccn2)sc2nc3c(cc12)CCCCCC3
Result: 34.6

Values were extracted from PubChem BioAssay (NCI).
